Experiment: Cmax in Wistar rat at 50 mg/kg, po
Type: ADME, organism-based
Set-up: dose 50 mg/kg, route oral
Conditions: in vivo
Measurement Kind: Cmax (ng/mL)

Compound: CCC(c1ccc(-c2ccc(F)cc2)cc1)n1ccnc1 (stereo unspecified)
Measurement Kind: Cmax
Unit Label: ng/mL
Endpoint Value: 3290

* * *

Biological target: CYP1A2 (Homo sapiens)
Sequence (P05177 whole entry): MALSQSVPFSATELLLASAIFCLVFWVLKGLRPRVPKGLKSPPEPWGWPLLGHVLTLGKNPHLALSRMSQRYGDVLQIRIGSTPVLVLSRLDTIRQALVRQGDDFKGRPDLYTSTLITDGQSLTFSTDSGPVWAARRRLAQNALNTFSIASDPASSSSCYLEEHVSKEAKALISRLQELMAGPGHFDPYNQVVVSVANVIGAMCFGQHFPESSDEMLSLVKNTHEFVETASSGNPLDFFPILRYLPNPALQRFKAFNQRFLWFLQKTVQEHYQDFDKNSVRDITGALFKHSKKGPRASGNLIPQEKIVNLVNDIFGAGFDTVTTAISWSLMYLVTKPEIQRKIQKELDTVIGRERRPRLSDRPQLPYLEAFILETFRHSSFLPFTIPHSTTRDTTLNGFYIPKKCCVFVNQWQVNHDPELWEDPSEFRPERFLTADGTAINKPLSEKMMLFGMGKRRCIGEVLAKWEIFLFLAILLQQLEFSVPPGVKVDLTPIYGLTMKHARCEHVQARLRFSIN
Experiment: Inhibition of hepatic CYP1A2 expressed in insect microsomes at 1 uM
Type: ADME, Microsome

Compound: CC(c1ccc2c(c1)[nH]c1ccccc12)n1ccnc1 (stereo unspecified)
System Under Test: CYP1A2 (Homo sapiens)
inhibition at 1 µM: 99%

Compound: Fc1ccc(-c2ccc(C(CCCl)n3ccnc3)cc2)cc1 (stereo unspecified)
System Under Test: CYP1A2 (Homo sapiens)
inhibition at 1 µM: 96%

Compound: CCC(CC)(c1ccc(-c2ccc(F)cc2)cc1)n1ccnc1
System Under Test: CYP1A2 (Homo sapiens)
inhibition at 1 µM: 51%

Compound: CC(c1ccc2c(c1)Cc1cc(O)ccc1-2)n1ccnc1 (stereo unspecified)
System Under Test: CYP1A2 (Homo sapiens)
inhibition at 1 µM: 93%

Compound: CCC(c1ccc(-c2ccc(F)cc2)cc1)n1ccnc1 (stereo unspecified)
System Under Test: CYP1A2 (Homo sapiens)
inhibition at 1 µM: 97%

Compound: CC(c1ccc2c(c1)Cc1ccccc1-2)n1ccnc1 (stereo unspecified)
System Under Test: CYP1A2 (Homo sapiens)
inhibition at 1 µM: 98%
